- study-target: PRKCG (human)
- experiment-notes: radiometric filter-binding kinase assay, Kinase HotSpot
- assay-setup: compound 0.5 µM; ATP 10 µM
quantity-measured: residual activity (%)
Numeric answer only, unit % assumed.

**Q:** // returns reported residual activity for input N/C(=N\N=C/c1ccc(-c2cccc([N+](=O)[O-])c2)o1)N[N+](=O)[O-]
**A:** 96.4

**Q:** // returns reported residual activity for input COc1cc2c(cc1OC)-c1[nH]nc(Nc3cccc(F)c3)c1C2
**A:** 102

**Q:** // returns reported residual activity for input O=C(O)c1ccc2c3c1cccc3c(=O)n1c3ccccc3nc21
**A:** 99.1

**Q:** // returns reported residual activity for input O=C(c1ccccc1)c1ccc(N2CCOCC2)cc1O
**A:** 95.6

**Q:** // returns reported residual activity for input c1ccc(-c2cnc(Nc3ccc(OCCN4CCCC4)cc3)s2)cc1
**A:** 92.5

***
**Q:** // returns reported residual activity for input O=c1[nH]c2ccccc2n1C1CCN(Cc2ccc(-c3nc4cc5[nH]cnc5cc4nc3-c3ccccc3)cc2)CC1
**A:** 92.2

**Q:** // returns reported residual activity for input O=c1c(-c2ccc(F)cc2)c(-c2ccncc2)[nH]n1-c1ccc(Cl)cc1
**A:** 101

**Q:** // returns reported residual activity for input O=C1NC(=O)c2c1c1c3ccccc3[nH]c1c1[nH]c3cc(Br)ccc3c21
**A:** 76.6

**Q:** // returns reported residual activity for input CCCCc1c(-c2ccc(O)cc2)[nH]c2nccnc12
**A:** 95.1

**Q:** // returns reported residual activity for input Cc1cc(Nc2nc(-c3ccccc3)nc3ccccc23)n[nH]1
**A:** 98.6

**Q:** // returns reported residual activity for input N#C/C(=C1/Nc2ccccc2S1)c1ccnc(NCCc2cccnc2)n1
**A:** 92.2

**Q:** // returns reported residual activity for input FC(F)(F)c1ccc(/C=C/c2nc(COc3ccc(CCCCn4ccnn4)cc3)co2)cc1
**A:** 95.2

----------
residual activity overview
- study-target: MAPKAPK5 (human)
- experiment-notes: radiometric filter-binding kinase assay, Kinase HotSpot
- assay-setup: compound 0.5 µM; ATP 10 µM
Numeric answer only, unit % assumed.

The cases that follow already have their residual activity on record.
**Q:** // returns reported residual activity for input O=c1[nH]c2ccccc2n1C1CCN(Cc2ccc(-c3nc4cc5[nH]cnc5cc4nc3-c3ccccc3)cc2)CC1
**A:** 97.4

**Q:** // returns reported residual activity for input COc1cc2c(cc1OC)-c1[nH]nc(Nc3cccc(F)c3)c1C2
**A:** 82.3

**Q:** // returns reported residual activity for input N#Cc1c(NC(=O)c2cccc3ccccc23)sc2c1CCCC2
**A:** 96.6

**Q:** // returns reported residual activity for input O=C1NC(=O)c2c1c1c3ccccc3[nH]c1c1[nH]c3cc(Br)ccc3c21
**A:** 86.2

**Q:** // returns reported residual activity for input Cc1cc(Nc2nc(-c3ccccc3)nc3ccccc23)n[nH]1
**A:** 93.2

***
**Q:** // returns reported residual activity for input c1ccc(-c2cnc(Nc3ccc(OCCN4CCCC4)cc3)s2)cc1
**A:** 83.4

**Q:** // returns reported residual activity for input COc1cc2c(N3CCN(C(=O)Nc4ccc(OC(C)C)cc4)CC3)ncnc2cc1OCCCN1CCCCC1
**A:** 91.9

**Q:** // returns reported residual activity for input O=c1c(-c2ccc(F)cc2)c(-c2ccncc2)[nH]n1-c1ccc(Cl)cc1
**A:** 99.7
